Just for reference, patent US20230203146A1 is where these values come from.

target_desc: T1, FLAG-tagged mouse Ang2 (mouse, UniProt O35608 19-496)
T1 construct: N-terminally FLAG-tagged, conditioned medium of HEK293T cells; also called mAng2; FLAG-mAng2
T1 sequence: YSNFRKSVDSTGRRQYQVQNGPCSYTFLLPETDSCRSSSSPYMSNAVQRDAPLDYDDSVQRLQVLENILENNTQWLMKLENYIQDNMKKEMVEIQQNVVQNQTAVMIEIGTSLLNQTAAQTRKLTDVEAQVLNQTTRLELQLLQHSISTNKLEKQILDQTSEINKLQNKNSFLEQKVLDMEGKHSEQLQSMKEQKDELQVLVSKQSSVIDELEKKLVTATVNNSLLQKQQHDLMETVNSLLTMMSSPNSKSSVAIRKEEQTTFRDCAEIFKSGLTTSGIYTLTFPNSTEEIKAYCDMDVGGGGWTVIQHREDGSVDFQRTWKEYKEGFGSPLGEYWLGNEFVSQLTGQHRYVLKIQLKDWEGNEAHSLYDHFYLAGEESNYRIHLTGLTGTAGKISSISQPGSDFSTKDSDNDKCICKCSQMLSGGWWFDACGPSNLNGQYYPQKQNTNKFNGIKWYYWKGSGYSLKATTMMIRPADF
measurement_description: competition ELISA: FLAG-mAng2 binding to coated mTie2-Fc
Some binders, each annotated with its measured IC50.
Write the value in pM as a bare number.

binder	value_measured
VHH 00930 (VHH, not shown: small tags and cut ends) VHH: EVQLVESGGGLVQPGGSLRLSCAASGFALDYYAIGWFRQAPGKEREGVSCISSSGGITYYADSVKGRFTISRDNSKNTVYLQMNSLRPEDTAVYYCATESGGYIDYDCRGLGYDYWGQGTLVTVSS	170
VHH 00926 (VHH, not shown: small tags and cut ends) VHH: EVQLVESGGGLVQPGGSLRLSCAASGFALDYYAIGWFRQAPGKEREGVSCISSSGGITYYADSVKGRFTISRDNSKNTVYLQMNSLRPEDTAVYYCATDSGGYIDYDCQGLGYDYWGQGTLVTVSS	200
VHH 00927 (VHH, not shown: small tags and cut ends) VHH: EVQLVESGGGLVQPGGSLRLSCAASGFALDYYAIGWFRQAPGKEREGVSCISSSGGITYYADSVKGRFTISRDNSKNTVYLQMNSLRPEDTAVYYCATDSGGYIDYDCRGLGYDYWGQGTLVTVSS	190

Let us examine a further case.
input: Given the entry VHH 00920 (VHH, not shown: small tags and cut ends) VHH: EVQLVESGGGLVQPGGSLRLSCAASGFALDYYAIGWFRQAPGKEREGVSCISSSGGITYYADSVKGRFTISRDNSKNTVYLQMNSLRPEDTAVYYCATDSGGYIDYDCMGLGYDYWGQGTLVTVSS , report its measured IC50.
output: 150
